# Tested on: HepG2
# assay: GSK_TCMDC: Percent inhibition of human HepG2 cell line. Test compounds present at 10uM.
# Format: functional
Listed below: Inhibition values for each entry.
experimental endpoint: Inhibition (%)

Fc1ccc2[nH]c(-c3cccc(-c4ccc(CNCCN5CCNCC5)cc4)c3)nc2c1.O=C(O)C(F)(F)F; 9
CC(CN1CCN(C)CC1)C(=O)Nc1cccc(-c2ccc(-c3nc4cc(F)ccc4[nH]3)cc2)c1 (configuration not stated); 10
CS(=O)(=O)NCCCNCc1ccc(-c2ccc(-c3nc4cc(F)ccc4[nH]3)s2)cc1.O=C(O)C(F)(F)F; 23
CC(NCCC1CCC(NC(=O)N[C@H](C)C(O)(c2ccccc2)c2ccccc2)CC1)c1cccc2ccccc12 (some centres not stated); 43
COc1ccc(-c2ccc(NC(=O)c3cccc(Cl)c3)c(F)c2)cc1CN1CCCN(C)CC1.O=C(O)C(F)(F)F; 43
CC(C)COc1ccc(Cl)cc1Cc1ccc(-c2nc3cc(N4CCN(C)CC4)ccc3[nH]2)o1.Cl; 6
Cc1ccc(Nc2nc(C)cc(NC3CC3)n2)cc1; 0
CC(=O)Nc1cccc(C(=O)Nc2cccc(-c3cccc(-c4nc5ccccc5[nH]4)c3)c2)c1; 41
COc1ccccc1OCCN(CC(O)COc1cccc2[nH]c3ccccc3c12)CC(O)COc1cccc2[nH]c3ccccc3c12 (configuration not stated); 16
CCC(C)NC(=O)Nc1cccc(-c2cccc(-c3nc4cccc(C)c4[nH]3)c2)c1 (configuration not stated); 3
Cc1[nH]c(/C=C2\C(=O)Nc3ccc(S(=O)(=O)Cc4c(Cl)cccc4Cl)cc32)c(C)c1C(=O)N1CCC[C@@H]1CN1CCCC1 [PHA-665752]; 33
CCN1CCN(C(=O)NC(C(=O)N2CCCC(COc3ccc(Cc4ccccc4)cc3)C2)c2cccs2)C(=O)C1=O (configuration not stated); 12
Cc1cc2nc(-c3ccc(OCC(=O)NCc4ccc(C(C)(C)C)cc4)cc3)[nH]c2cc1C; 11
C=CCc1cc(Br)ccc1OCCCOc1c(N)nc(N)nc1N.Cl; 47
Cc1cccc(C(=O)Nc2ccc(N3CCCN(Cc4cccc(O)c4)CC3)cc2)c1.O=C(O)C(F)(F)F; 2
O=C(Nc1ccc(Cn2ncc(N3CCCNCC3)c(Cl)c2=O)cc1)Nc1ccc(F)cc1[N+](=O)[O-]; 11
O=C(O)C(F)(F)F.O=S(=O)(NCCN1CCCC1)c1ccc(-c2cccc(CNCCc3cccs3)c2)cc1; 41

###

# Test system: HepG2
# assay: GSK_TCMDC: Percent inhibition of human HepG2 cell line. Test compounds present at 10uM.
# Type: functional
Consider the following partition of reported Inhibition into named classes: b0 (below 10%), b1 (10% to below 40%), b2 (40% or more)

CS(=O)(=O)N(c1ccc(F)cc1)c1cc(C(=O)N[C@@H](Cc2ccccc2)[C@H](O)CNCc2cccc(C(F)(F)F)c2)cc(N2CCCC2=O)c1.O=CO; b0
O=C(O)C(F)(F)F.O=S(=O)(NC1CCCCN(Cc2ccccc2O)C1)c1ccc(C(F)(F)F)cc1 (stereo not drawn); b0
CN1CCc2ccc(NC(=O)Nc3cccc([N+](=O)[O-])c3)cc2C1; b0
CN1CCN(CCCNCc2cccc(Nc3nccc(Nc4ccc(Oc5ccccc5)cc4)n3)c2)CC1; b2
CCNc1cc(C(=O)N[C@@H](Cc2ccccc2)[C@H](O)CNC2CCCCC2)cc(N2CCCCS2(=O)=O)c1; b1
CC(C)CCn1c(Sc2ccc(C#N)c([N+](=O)[O-])c2)nnc1-c1ccccc1Cl; b1
CN(C)CCN(C)Cc1ccc(-c2ccc(NC(=O)c3cccc(Cl)c3)cc2)cc1.O=C(O)C(F)(F)F; b2
Cc1cccc(-c2nn(-c3ccccc3)c3[nH]c(=O)c(CN4CCSCC4)cc23)c1; b0
CCCCOc1c(CNCCCCCCNCc2ccc3ccccc3c2OCCCC)ccc2ccccc12.CS(=O)(=O)O; b2
CCCCC(=O)Nc1ccc(Nc2nc(C)cc(N3CCCC3)n2)cc1; b1
CC(Oc1cc(-n2cnc3ccc(NC(=O)CCN4CCCCC4)cc32)sc1C(N)=O)c1ccccc1Cl (stereo not drawn); b2
CN(C)c1ccc(-c2ccc(C(=O)NC3CCN(Cc4ccc5c(c4)OCCO5)CC3)s2)cc1.O=C(O)C(F)(F)F; b1
COc1ccc2nc3cc(Cl)ccc3c(NCCCCNc3c4ccc(Cl)cc4nc4ccc(OC)cc34)c2c1; b1
O=C(Nc1cc(C(F)(F)F)cc(C(F)(F)F)c1)c1cc(Cl)ccc1O [IMD-0354]; b2
Cc1cn(CC(=O)Nc2cccc(-c3cccc(-c4nc5cccc(C)c5[nH]4)c3)c2)c(=O)[nH]c1=O; b0
O=C(NC1CCN(Cc2ccccc2)CC1)c1cc(-c2ccncc2)nc2ccc(Cl)cc12; b1
COc1ccc(NC(=O)CSc2nc(-c3ccccc3Cl)ns2)cc1; b1
